System: LPS/Galactosamine-Induced Lethality
Test protocol: In vivo inhibition of LPS/galactosamine-induced lethality in mice
Set-up: species or system mice (C57BI/6J)
Test context: 25 mg/kg oral or i.p. one hour before LPS (100 ng) and d-galactosamine (8 mg) i.p.; survival at 24 hours
Property name: # DEAD/TOTAL AT 25 MG/KG

> print(dat)
                                   molecule                      subject.of.test  value.measured
1  CCCC(CN(C)C)C1c2ccccc2COc2ccccc21 (stereo not shown)  LPS/Galactosamine-Induced Lethality            7/10

Please state # DEAD/TOTAL AT 25 MG/KG for every molecule in the list that follows.
1. CCOC(C(=O)N(C)C)C1c2ccccc2CCc2ccccc21 (stereo not shown)
2. CN(C)CC(O)C1c2ccccc2CCc2ccccc21 (stereo not shown)
3. CCOC(CN(C)C)C1c2ccccc2CCc2ccccc21 (stereo not shown)
4. CCOC(CNC)C1c2ccccc2CCc2ccccc21 (stereo not shown)
5. CCCC(CN(C)C(C)=O)C1c2ccccc2COc2ccccc21 (stereo not shown)
6. CNCCC1c2ccccc2CCc2ccccc21

10/10
8/10
8/10
7/9
10/10
1/10

// data source = patent US5574173A
